target: human S1P1 receptor (Homo sapiens, UniProt P21453); construct: membranes were used; assay: GTP γ35S binding assay, S1P1 receptor activity; conditions: membranes of cells stably expressing the S1P1 receptor, test compounds 0.08 to 5,000 nM
Sequence (P21453 whole entry): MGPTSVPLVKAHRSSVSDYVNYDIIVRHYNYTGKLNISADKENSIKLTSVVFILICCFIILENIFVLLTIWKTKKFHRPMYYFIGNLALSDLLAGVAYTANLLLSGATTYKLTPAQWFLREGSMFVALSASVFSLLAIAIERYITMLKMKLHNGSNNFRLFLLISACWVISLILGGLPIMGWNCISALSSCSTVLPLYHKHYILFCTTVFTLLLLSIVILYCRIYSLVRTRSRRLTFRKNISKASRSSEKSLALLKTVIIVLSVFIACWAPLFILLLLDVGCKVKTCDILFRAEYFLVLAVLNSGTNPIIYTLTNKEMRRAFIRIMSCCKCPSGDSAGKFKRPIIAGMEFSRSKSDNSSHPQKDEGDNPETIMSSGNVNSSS
pEC50: −log10 of the molar value.
pEC50 of 6 or higher: True. Under 6: False.

As a guide, the following entries are already answered.
[
  {
    "compound": "Cc1ccc2c(c1)c(-c1nc(-c3ccc(CNCCC(=O)O)cc3)no1)cn2Cc1ccc(C)c(C)c1 [Compound 13]",
    "discrete.label": "True"
  },
  {
    "compound": "Cc1ccc2c(c1)c(-c1nc(-c3ccc(CN4CC(C(=O)O)C4)cc3)no1)cn2Cc1ccc(C)c(C)c1 [Compound 1]",
    "discrete.label": "True"
  },
  {
    "compound": "COc1ccc2c(c1)c(-c1nc(-c3ccc(CN4CC(C(=O)O)C4)cc3)no1)c(C)n2Cc1ccc(C)c(C)c1 [Compound 3]",
    "discrete.label": "False"
  }
]

As a next step, examine the compound that follows.
State whether the measured pEC50 reaches 6, counting equality as reaching it, for CNc1ncccc1-c1noc(-c2cn(Cc3ccc(C)c(C)c3)c3ccc(F)cc23)n1 [Compound 11]
True
